target.entity: CDK2/Cyclin E1 complex (Homo sapiens, UniProt P24941)
measurement.protocol: CDK2 kinase inhibition assay (Caliper/LabChip EZ Reader)
condition: CDK2/Cyclin E1 0.5 nM, ATP 2 mM, 35 min at 27° C.
parameter.measured: IC50

Challenge: Which measured IC50 value corresponds to N#Cc1cn(-c2ccc3c(-c4nc(NC5CCCNC5)ncc4C(F)(F)F)c[nH]c3c2)cn1 (stereo not drawn) ?
Response given: ≥ 5 µM

Challenge: Another compound to check: "N#Cc1ccc2c(-c3nc(N[C@@H]4CNC[C@H](O)C4)ncc3C(F)(F)F)c[nH]c2c1"
Response given: ≥ 5 µM

Challenge: Also need CC1(C)CCC(Nc2ncc(C(F)(F)F)c(-c3c[nH]c4ccccc34)n2)CN1 (stereo not drawn) , thanks.
Response given: 0.2 to 5 µM

Further cases:
Challenge: # input compound: Cc1nc(-c2ccc3c(-c4nc(NC5CCCNC5)ncc4C(F)(F)F)c[nH]c3c2)n[nH]1 (stereo not drawn) ; wanted: its IC50
Response given: 0.2 to 5 µM

Challenge: Please do the same for COCCn1cc(-c2nc(NC3CCCNC3)ncc2C(F)(F)F)c2ccccc21 (stereo not drawn) as well.
Response given: ≥ 5 µM

Challenge: Next compound: COCn1cc(-c2nc(NC3CCCNC3)ncc2C(F)(F)F)c2ccc(C#N)nc21 (stereo not drawn)
Response given: ≥ 5 µM

Challenge: Now the same for O=C(c1ccc2c(-c3nc(NC4CCCNC4)ncc3C(F)(F)F)c[nH]c2c1)N1CCCC1 (stereo not drawn)
Response given: 0.2 to 5 µM

Challenge: Again, but for CCc1cnc(NC2CCCNC2)nc1-c1n[nH]c2nc(C#N)ccc12 (stereo not drawn)
Response given: 0.2 to 5 µM

Challenge: Also N#Cc1ccc2[nH]cc(-c3nc(NC4CCCNC4)ncc3C(F)(F)F)c2c1 (stereo not drawn) ?
Response given: ≥ 5 µM

Challenge: Check FC1CCNCC1Nc1ncc(Cl)c(-c2c[nH]c3ccccc23)n1 (stereo not drawn) too.
Response given: 0.2 to 5 µM

Challenge: And for CC(=O)c1cnc(NC2CCCNC2)nc1-c1c[nH]c2ccccc12 (stereo not drawn) ?
Response given: ≥ 5 µM

Challenge: One more compound: Cc1c(-c2ccc3c(-c4nc(NC5CCCNC5)ncc4C(F)(F)F)c[nH]c3c2)c[nH]c(=O)c1C#N (stereo not drawn)
Response given: 0.2 to 5 µM

Challenge: Cool, now CC1(C)CNCC(Nc2ncc(Cl)c(-c3c[nH]c4c(S(C)(=O)=O)c(C#N)ccc34)n2)C1 (stereo not drawn)
Response given: 0.2 to 5 µM

Challenge: Request: "CNC(=O)c1cccc2c(-c3nc(N[C@H]4CCCNC4)ncc3C(F)(F)F)c[nH]c12"
Response given: 0.2 to 5 µM

Challenge: Same thing, different compound: Cc1nc(-c2ccc3c(-c4nc(NC5CCCNC5)ncc4C(F)(F)F)c[nH]c3c2)nn1C (stereo not drawn)
Response given: 0.2 to 5 µM

Challenge: Now the same for Cc1cccc2c(-c3nc(NC4CCCNC4)ncc3Cl)c[nH]c12 (stereo not drawn)
Response given: 0.2 to 5 µM

Challenge: Next: O=C(O)c1ccc2c(-c3nc(NC4CCCNC4)ncc3C(F)(F)F)c[nH]c2c1 (stereo not drawn)
Response given: 0.2 to 5 µM

Challenge: # iterate: COCn1cc(-c2nc(NC3CCCNC3)ncc2C(F)(F)F)c2cccc(C#N)c21 (stereo not drawn)
Response given: ≥ 5 µM

Challenge: Now this one: "N#Cc1ccc2c(-c3nc(N[C@H]4CCC5(CCC5)NC4)ncc3C(F)(F)F)c[nH]c2c1"
Response given: ≥ 5 µM

Challenge: // same read-out, input: COC1CCN(C(=O)c2ccc3c(-c4nc(NC5CCCNC5)ncc4C(F)(F)F)c[nH]c3c2)C1 (stereo not drawn) [Compound 281]
Response given: 0.2 to 5 µM

Challenge: // repeat for Cc1cccc2c(-c3nc(NC4CCCNC4)ncc3C(F)(F)F)c[nH]c12 (stereo not drawn) and report
Response given: 0.2 to 5 µM

----------
Reported IC50 values for the following compounds.
target.entity: CDK2/Cyclin E1 complex (Homo sapiens, UniProt P24941)
measurement.protocol: CDK2 kinase inhibition assay (Caliper/LabChip EZ Reader)
condition: CDK2/Cyclin E1 0.5 nM, ATP 2 mM, 35 min at 27° C.

Challenge: Enter reported IC50 observed with CDK2/Cyclin E1 complex (Homo sapiens, UniProt P24941) for O=C(c1ccc2c(-c3nc(NC4CCCNC4)ncc3C(F)(F)F)c[nH]c2c1)N1CC(O)C(F)(F)C1 (stereo not drawn) [Compound 308]
Response given: 200 to 5000 nM

Further cases:
Challenge: GET /values?readout=IC50&system=CDK2/Cyclin E1 complex (Homo sapiens, UniProt P24941)&item= Fc1cc2[nH]cc(-c3nc(NC4CCCNC4)ncc3C(F)(F)F)c2cc1F (stereo not drawn)
Response given: 20 to 200 nM

Challenge: Lookup Cc1nn(C)cc1-c1cccc2c(-c3nc(NC4CCCNC4)ncc3C(F)(F)F)c[nH]c12 (stereo not drawn)
Response given: 200 to 5000 nM

----------
target.entity: CDK9/Cyclin T1 complex (Homo sapiens, UniProt P50750)
Sequence (P50750 whole entry): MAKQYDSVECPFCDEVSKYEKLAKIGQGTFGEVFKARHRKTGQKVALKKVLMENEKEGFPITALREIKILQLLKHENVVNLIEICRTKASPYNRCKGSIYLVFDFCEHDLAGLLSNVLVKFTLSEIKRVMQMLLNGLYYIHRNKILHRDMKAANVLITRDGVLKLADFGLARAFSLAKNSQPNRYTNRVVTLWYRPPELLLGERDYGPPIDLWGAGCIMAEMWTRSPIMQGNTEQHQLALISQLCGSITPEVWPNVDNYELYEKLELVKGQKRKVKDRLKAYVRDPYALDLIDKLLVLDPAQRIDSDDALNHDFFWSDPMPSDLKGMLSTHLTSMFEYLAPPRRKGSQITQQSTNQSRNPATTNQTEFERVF
Sequence (O60563 whole entry partner): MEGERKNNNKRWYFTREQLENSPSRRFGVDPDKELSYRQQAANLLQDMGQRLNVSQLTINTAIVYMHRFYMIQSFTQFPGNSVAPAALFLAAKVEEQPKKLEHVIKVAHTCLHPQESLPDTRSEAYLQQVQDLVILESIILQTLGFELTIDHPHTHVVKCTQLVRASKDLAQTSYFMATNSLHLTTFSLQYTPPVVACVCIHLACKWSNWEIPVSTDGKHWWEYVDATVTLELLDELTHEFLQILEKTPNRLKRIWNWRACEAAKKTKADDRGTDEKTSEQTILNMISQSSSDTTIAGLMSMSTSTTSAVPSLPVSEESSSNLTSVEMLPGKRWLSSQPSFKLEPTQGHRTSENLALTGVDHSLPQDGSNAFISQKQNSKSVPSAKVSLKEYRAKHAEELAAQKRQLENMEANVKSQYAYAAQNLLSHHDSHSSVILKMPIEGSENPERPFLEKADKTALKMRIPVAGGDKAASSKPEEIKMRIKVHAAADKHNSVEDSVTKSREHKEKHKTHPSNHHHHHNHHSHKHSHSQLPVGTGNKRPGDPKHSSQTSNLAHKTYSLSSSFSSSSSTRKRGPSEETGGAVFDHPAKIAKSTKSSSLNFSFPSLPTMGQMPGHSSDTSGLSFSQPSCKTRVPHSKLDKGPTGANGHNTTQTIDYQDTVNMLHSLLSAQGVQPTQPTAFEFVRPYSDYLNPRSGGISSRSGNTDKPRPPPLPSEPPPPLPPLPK
measurement.protocol: CDK9 kinase inhibition assay (Caliper/LabChip EZ Reader)
Type: biochemical
condition: CDK9/Cyclin T1 8 nM, ATP 2 mM, 15 min at 27° C.
Each record here notes measured IC50.

Completed entries (count: 3):
Challenge: Quick check: IC50 of N#Cc1ccc2c(-c3nc(NC4CCCNC4)ncc3OC(F)F)c[nH]c2c1 (stereo not drawn) ?
Response given: ≥ 5 µM

Challenge: Try this compound too: CC(=O)c1cnc(NC2CCCNC2)nc1-c1c[nH]c2ccccc12 (stereo not drawn)
Response given: ≥ 5 µM

Challenge: Repeat for the following compound: "FC(F)(F)c1cnc(N[C@H]2CCCNC2)nc1-c1c[nH]c2cc(-c3nccs3)ccc12"
Response given: 0.2 to 5 µM

Further cases:
Challenge: Report IC50 for CC(C)CN1CCCC(Nc2ncc(Cl)c(-c3c[nH]c4ccccc34)n2)C1 (stereo not drawn) please.
Response given: ≥ 5 µM

Challenge: And what about the compound "FC(F)(F)c1cnc(N[C@@H]2CNCc3ccccc32)nc1-c1c[nH]c2ccccc12" ?
Response given: ≥ 5 µM

Challenge: Input CCc1cnc(NC2CCCNC2)nc1-c1c[nH]c2ncc(F)cc12 (stereo not drawn)
Response given: ≥ 5 µM

Challenge: Can you check O=C(c1cccc(-c2ccc3c(-c4nc(NC5CCCNC5)ncc4C(F)(F)F)c[nH]c3c2)c1)N1CCCC1 (stereo not drawn) next?
Response given: 0.2 to 5 µM

Challenge: Please give the result for Cc1[nH]c2ccccc2c1-c1nc(NC2CCCNC2)ncc1Cl (stereo not drawn) too.
Response given: 0.2 to 5 µM

Challenge: Queued: "CS(=O)(=O)c1c(C#N)ccc2c(-c3nc(N[C@H]4CCCNC4)ncc3C(F)(F)F)c[nH]c12"
Response given: 0.2 to 5 µM

Challenge: Try this compound too: "FC(F)(F)c1cnc(N[C@H]2CCCNC2)nc1-c1c[nH]c2cc(-c3ccc4ncsc4c3)ccc12"
Response given: 0.2 to 5 µM

Challenge: Next up: CC(C)(O)CCc1cccc2c(-c3nc(NC4CCCNC4)ncc3C(F)(F)F)c[nH]c12 (stereo not drawn)
Response given: 0.2 to 5 µM

Challenge: Could you do the same for COCCn1cc(-c2nc(NC3CCCNC3)ncc2Cl)c2ccccc21 (stereo not drawn) , please?
Response given: 0.2 to 5 µM

Challenge: And for CC(C)N1CCCC(Nc2ncc(Cl)c(-c3c[nH]c4ccccc34)n2)C1 (stereo not drawn) ?
Response given: 0.2 to 5 µM

----------
target.entity: CDK9/Cyclin T1 complex (Homo sapiens, UniProt P50750)
measurement.protocol: CDK9 kinase inhibition assay (Caliper/LabChip EZ Reader)
condition: CDK9/Cyclin T1 8 nM, ATP 2 mM, 15 min at 27° C.
pIC50: −log10 of the molar value.
parameter.measured: pIC50

Answered cases to consult:
Challenge: Please give the measured pIC50 for this molecule: CCC1CCC(Nc2ncc(C(F)(F)F)c(-c3c[nH]c4ccccc34)n2)CN1 (stereo not drawn) [Compound 211]
Response given: 5.30 to 6.70

Challenge: Query Cc1n[nH]cc1-c1ccc2[nH]cc(-c3nc(NC4CCCNC4)ncc3C(F)(F)F)c2c1 (stereo not drawn) next
Response given: 5.30 to 6.70

Challenge: Query Cn1cc(-c2ccc3c(-c4nc(NC5CCCNC5)ncc4C(F)(F)F)c[nH]c3c2)cc1C#N (stereo not drawn) next
Response given: 5.30 to 6.70

Challenge: Subsequent entry: CC1(O)CCC(c2cccc3c(-c4nc(NC5CCCNC5)ncc4C(F)(F)F)c[nH]c23)CC1 (stereo not drawn)
Response given: 5.30 to 6.70

Challenge: Moving on to the next molecule: CCN1CCCC(Nc2ncc(C(F)(F)F)c(-c3c[nH]c4cc(C#N)ccc34)n2)C1 (stereo not drawn)
Response given: 5.30 to 6.70

Challenge: // repeat for CNC(=O)c1cccc2c(-c3nc(NC4CCCNC4)ncc3C(F)(F)F)cn(C)c12 (stereo not drawn) and report
Response given: ≤ 5.30

Challenge: Same for c1ccc2c(-c3nc(NC4CCCNC4)ncc3C3CC3)c[nH]c2c1 (stereo not drawn)
Response given: ≤ 5.30

Challenge: Can you check Clc1cnc(NC2CCCNC2)nc1-c1c[nH]c2ccc(N3CCOCC3)cc12 (stereo not drawn) next?
Response given: ≤ 5.30

Challenge: Moving on to the next molecule: NC(=O)c1cccc(-c2ccc3c(-c4nc(NC5CCCNC5)ncc4C(F)(F)F)c[nH]c3c2)c1 (stereo not drawn)
Response given: 5.30 to 6.70

Challenge: Field entry: OC1CC=C(c2cccc3c(-c4nc(NC5CCCNC5)ncc4C(F)(F)F)c[nH]c23)CC1 (stereo not drawn)
Response given: 5.30 to 6.70

Others:
Challenge: // returns reported pIC50 for input N#CC1CCN(C(=O)c2ccc3c(-c4nc(NC5CCCNC5)ncc4C(F)(F)F)c[nH]c3c2)C1 (stereo not drawn) [Compound 292]
Response given: 5.30 to 6.70

Challenge: What do you have for O=C(c1ccc2c(-c3nc(NC4CCCNC4)ncc3C(F)(F)F)c[nH]c2c1)N1CC(O)C(F)(F)C1 (stereo not drawn) [Compound 308] ?
Response given: 5.30 to 6.70

Challenge: # repeat for FC(F)(F)c1cnc(NC2CCCNC2)nc1-c1n[nH]c2ccccc12 (stereo not drawn)
Response given: 5.30 to 6.70

Challenge: Try this molecule too: N#Cc1ccc2c(-c3nc(NC4CNCCC4O)ncc3C(F)(F)F)c[nH]c2c1 (stereo not drawn)
Response given: ≤ 5.30

Challenge: // next record FC(F)(F)c1cnc(NC2CCCNC2)nc1-c1c[nH]c2c(Cl)cccc12 (stereo not drawn)
Response given: 5.30 to 6.70
